# assay summary: Elimination half life in dog at 1 mg/kg, iv
# Format: ADME, organism-based, Canis lupus familiaris
# Parameters: dose 1 mg/kg, route intravenous
# measurement context: in vivo, read-out: beta t1/2 (converted)

>  <record smiles>
C=CCc1cccc(/C=N/NC(=O)CN2CCN(Cc3ccccc3)CC2)c1O

>  <half-life>
2.1 h

$$$$

###

Overview of recorded Activity for various compounds
# target system: Caspase-3/Caspase-7 (Homo sapiens) (UniProt P42574+P55210)
# Sequence (P42574 whole entry, looked up): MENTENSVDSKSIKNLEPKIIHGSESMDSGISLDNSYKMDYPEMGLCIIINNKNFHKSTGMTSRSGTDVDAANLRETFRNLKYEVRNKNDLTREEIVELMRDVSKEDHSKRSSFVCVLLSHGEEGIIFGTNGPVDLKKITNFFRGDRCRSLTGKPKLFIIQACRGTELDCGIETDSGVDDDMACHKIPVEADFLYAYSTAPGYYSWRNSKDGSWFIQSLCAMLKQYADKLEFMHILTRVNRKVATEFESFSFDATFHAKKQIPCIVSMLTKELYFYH
# Sequence (P55210 whole entry, looked up): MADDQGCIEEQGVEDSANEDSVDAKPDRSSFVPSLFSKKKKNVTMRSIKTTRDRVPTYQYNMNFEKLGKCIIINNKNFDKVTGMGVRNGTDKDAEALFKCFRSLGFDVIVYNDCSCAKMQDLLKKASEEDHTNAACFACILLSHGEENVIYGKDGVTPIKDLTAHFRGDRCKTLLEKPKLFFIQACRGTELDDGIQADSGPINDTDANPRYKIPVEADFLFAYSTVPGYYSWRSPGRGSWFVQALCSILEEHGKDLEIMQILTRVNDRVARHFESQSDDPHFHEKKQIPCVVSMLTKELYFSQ
# assay summary: Activation of Caspase 3/7 in human U937 cells assessed as cleavage of Ac-DEVD-AFC at 30 uM after 16 hrs by fluorescence assay relative to control
# Assay type: cell-based
# measurement context: U-937

>  <compound>
C=CCc1cc(F)cc(/C=N/NC(=O)CN2CCN(C(=O)c3ccccc3)CC2)c1O

>  <Activity [%]>
67

$$$$
>  <compound>
O=C(CN1CCN(Cc2ccccc2)CC1)N/N=C/c1ccccc1

>  <Activity [%]>
3

$$$$
>  <compound>
C=CCc1cccc(/C=N/NC(=O)CN2CCN(Cc3ccccc3)CC2)c1O [PAC-1]

>  <Activity [%]>
87

$$$$
>  <compound>
C=CCc1cccc(/C=N/NC(=O)CN2CCN(C(=O)c3ccc(F)cc3)CC2)c1O

>  <Activity [%]>
64

$$$$

Reference source: ChEMBL document CHEMBL3425441
